Tested on: P. falciparum 803 (artemisinin-resistant strain)
Measurement description: In vitro antimalarial IC50 assay
Type: cell-based, Plasmodium falciparum
Test parameters: strain 803, 72 h incubation, Giemsa smears
Endpoint: pIC50
pIC50 field: float, defined as -log10 of concentration (mol/L).

q: Hi! What's the reported pIC50 for APRWKFGKRLEKLGRNVFRAA KKALPVIAGYKAL-NH2 [An-cecB] on P. falciparum 803 (artemisinin-resistant strain)?
a: 5.00

---

Tested on: HEK293T cells
Endpoint: cytotoxicity to HEK293T cells

- Substance: "RAAKKALPVIAGYKAL-NH2 [An-cecB-2]"
  Endpoint: "cytotoxicity to HEK293T cells"
  Result: "No cytotoxicity"
- Substance: "APRWKFGKRLEKLGRNVF-NH2 [An-cecB-1]"
  Endpoint: "cytotoxicity to HEK293T cells"
  Result: "No cytotoxicity"
- Substance: "GKRLEKLGRNVFRAAKK-NH2 [An-cecB-3]"
  Endpoint: "cytotoxicity to HEK293T cells"
  Result: "No cytotoxicity"
